B1: scFv; the commonest letter at each place (parent)
chain 1: EVKLDETGGGLVQPGRPMKLSCVASGFTFSDYWMNWVRQSPEKGLEWVAQIRNKPYNYETYYSDSVKGRFTISRDDSKSSVYLQMNNLRVEDMGIYYCTGSYYGMDYWGQGTSVTVS
chain 2: DVVMTQTPLSLPVSLGDQASISCRSSQSLVHSNGNTYLRWYLQKPGQSPKVLIYKVSNRFSGVPDRFSGSGSGTDFTLKISRVEAEDLGVYFCSQSTHVPWTFGGGTKLEIK

variants of: B1; assay: yeast surface expression (ratio to wild type); higher = more expressed; conditions: format: scFv 4-4-20, heavy + light
Mark Not met for yeast surface expression values under 0.8, and Met for everything at or above.

Task item: Could you please find out whether chain 1 Y107T W108A has yeast surface expression that meets 0.8 or exceeds it?
Reply: Not met

Task item: Could you please find out whether chain 1 Y32S has yeast surface expression that meets 0.8 or exceeds it?
Reply: Met

Task item: Could you please find out whether chain 1 S101L Y103R has yeast surface expression that meets 0.8 or exceeds it?
Reply: Not met

Task item: Could you please find out whether chain 1 S30A V37Y has yeast surface expression that meets 0.8 or exceeds it?
Reply: Met

Task item: Could you please find out whether chain 1 S30Y M34H has yeast surface expression that meets 0.8 or exceeds it?
Reply: Not met

Task item: Could you please find out whether chain 1 W33Q W36V has yeast surface expression that meets 0.8 or exceeds it?
Reply: Not met

Task item: Could you please find out whether chain 1 S101R G104T has yeast surface expression that meets 0.8 or exceeds it?
Reply: Not met

Task item: Could you please find out whether chain 1 F29W has yeast surface expression that meets 0.8 or exceeds it?
Reply: Not met

Task item: Could you please find out whether chain 1 S101C D106I G109A has yeast surface expression that meets 0.8 or exceeds it?
Reply: Not met

Task item: Could you please find out whether chain 1 Y102H Y103C has yeast surface expression that meets 0.8 or exceeds it?
Reply: Not met

Task item: Could you please find out whether chain 1 Y102F M105C W108T has yeast surface expression that meets 0.8 or exceeds it?
Reply: Not met

Task item: Could you please find out whether chain 1 S101I Y102M has yeast surface expression that meets 0.8 or exceeds it?
Reply: Not met

Task item: Could you please find out whether chain 1 T28R S30L D31S has yeast surface expression that meets 0.8 or exceeds it?
Reply: Not met

Task item: Could you please find out whether chain 1 S30P N35L has yeast surface expression that meets 0.8 or exceeds it?
Reply: Not met

Task item: Could you please find out whether chain 1 F29A W33I has yeast surface expression that meets 0.8 or exceeds it?
Reply: Met

Task item: Could you please find out whether chain 1 Y32N M34G has yeast surface expression that meets 0.8 or exceeds it?
Reply: Not met

Task item: Could you please find out whether chain 1 S101M G104W has yeast surface expression that meets 0.8 or exceeds it?
Reply: Not met

Task item: Could you please find out whether chain 1 G104K G109C has yeast surface expression that meets 0.8 or exceeds it?
Reply: Not met

Task item: Could you please find out whether chain 1 S30V D31M has yeast surface expression that meets 0.8 or exceeds it?
Reply: Not met

Task item: Could you please find out whether chain 1 M105S G109T has yeast surface expression that meets 0.8 or exceeds it?
Reply: Not met

Task item: Could you please find out whether chain 1 D31H W33P has yeast surface expression that meets 0.8 or exceeds it?
Reply: Not met

Task item: Could you please find out whether chain 1 G104T D106T Y107L has yeast surface expression that meets 0.8 or exceeds it?
Reply: Not met

Task item: Could you please find out whether chain 1 G100F Y107T has yeast surface expression that meets 0.8 or exceeds it?
Reply: Met

Task item: Could you please find out whether chain 1 F29D D31E has yeast surface expression that meets 0.8 or exceeds it?
Reply: Met

Task item: Could you please find out whether chain 1 Y32H V37T has yeast surface expression that meets 0.8 or exceeds it?
Reply: Met

Task item: Could you please find out whether chain 1 F29Y V37L has yeast surface expression that meets 0.8 or exceeds it?
Reply: Not met

Task item: Could you please find out whether chain 1 S101C M105I has yeast surface expression that meets 0.8 or exceeds it?
Reply: Met

Task item: Could you please find out whether chain 1 Y102R Y103P has yeast surface expression that meets 0.8 or exceeds it?
Reply: Met

Task item: Could you please find out whether chain 1 F29P has yeast surface expression that meets 0.8 or exceeds it?
Reply: Met

Task item: Could you please find out whether chain 1 T28P W36Y has yeast surface expression that meets 0.8 or exceeds it?
Reply: Met

Task item: Could you please find out whether chain 1 Y103D G109R has yeast surface expression that meets 0.8 or exceeds it?
Reply: Not met

Task item: Could you please find out whether chain 1 T28A has yeast surface expression that meets 0.8 or exceeds it?
Reply: Met

Task item: Could you please find out whether chain 1 M34T W36Y has yeast surface expression that meets 0.8 or exceeds it?
Reply: Not met

Task item: Could you please find out whether chain 1 G104A has yeast surface expression that meets 0.8 or exceeds it?
Reply: Not met

Task item: Could you please find out whether chain 1 T28D F29Y has yeast surface expression that meets 0.8 or exceeds it?
Reply: Met

Task item: Could you please find out whether chain 1 Y102L Y107S has yeast surface expression that meets 0.8 or exceeds it?
Reply: Met

Task item: Could you please find out whether chain 1 S30M D31S has yeast surface expression that meets 0.8 or exceeds it?
Reply: Not met

Task item: Could you please find out whether chain 1 Y102I D106Q has yeast surface expression that meets 0.8 or exceeds it?
Reply: Not met

Task item: Could you please find out whether chain 1 F29L M34C has yeast surface expression that meets 0.8 or exceeds it?
Reply: Not met

Task item: Could you please find out whether chain 1 T28C D31F M34A has yeast surface expression that meets 0.8 or exceeds it?
Reply: Not met

Task item: Could you please find out whether chain 1 G100N D106N has yeast surface expression that meets 0.8 or exceeds it?
Reply: Not met

Task item: Could you please find out whether chain 1 Y107P G109N has yeast surface expression that meets 0.8 or exceeds it?
Reply: Not met

Task item: Could you please find out whether chain 1 T28V M34S has yeast surface expression that meets 0.8 or exceeds it?
Reply: Not met

Task item: Could you please find out whether chain 1 W33Q N35E has yeast surface expression that meets 0.8 or exceeds it?
Reply: Not met

Task item: Could you please find out whether chain 1 W33T has yeast surface expression that meets 0.8 or exceeds it?
Reply: Met

Task item: Could you please find out whether chain 1 Y32F W33Y has yeast surface expression that meets 0.8 or exceeds it?
Reply: Not met

Task item: Could you please find out whether chain 1 D31L N35F has yeast surface expression that meets 0.8 or exceeds it?
Reply: Not met

Task item: Could you please find out whether chain 1 M105E G109W has yeast surface expression that meets 0.8 or exceeds it?
Reply: Not met

Task item: Could you please find out whether chain 1 T28L has yeast surface expression that meets 0.8 or exceeds it?
Reply: Met

Task item: Could you please find out whether chain 1 G100D M105Y has yeast surface expression that meets 0.8 or exceeds it?
Reply: Not met

Task item: Could you please find out whether chain 1 S101N G109D has yeast surface expression that meets 0.8 or exceeds it?
Reply: Not met

Task item: Could you please find out whether chain 1 W33K has yeast surface expression that meets 0.8 or exceeds it?
Reply: Not met

Task item: Could you please find out whether chain 1 D106P W108K has yeast surface expression that meets 0.8 or exceeds it?
Reply: Not met

Task item: Could you please find out whether chain 1 W33C M34C W36A has yeast surface expression that meets 0.8 or exceeds it?
Reply: Not met

Task item: Could you please find out whether chain 1 G104N Y107K has yeast surface expression that meets 0.8 or exceeds it?
Reply: Not met

Task item: Could you please find out whether chain 1 Y32W W33P has yeast surface expression that meets 0.8 or exceeds it?
Reply: Met

Task item: Could you please find out whether chain 1 Y32A V37Y has yeast surface expression that meets 0.8 or exceeds it?
Reply: Met

Task item: Could you please find out whether chain 1 Y102Q M105I has yeast surface expression that meets 0.8 or exceeds it?
Reply: Met

Task item: Could you please find out whether chain 1 F29N W36H has yeast surface expression that meets 0.8 or exceeds it?
Reply: Not met

Task item: Could you please find out whether chain 1 F29T D31A has yeast surface expression that meets 0.8 or exceeds it?
Reply: Met

Task item: Could you please find out whether chain 1 Y32C M34P has yeast surface expression that meets 0.8 or exceeds it?
Reply: Not met

Task item: Could you please find out whether chain 1 T28L W33S has yeast surface expression that meets 0.8 or exceeds it?
Reply: Met

Task item: Could you please find out whether chain 1 W33E M34W has yeast surface expression that meets 0.8 or exceeds it?
Reply: Met

Task item: Could you please find out whether chain 1 F29C M34K W36I has yeast surface expression that meets 0.8 or exceeds it?
Reply: Not met

Task item: Could you please find out whether chain 1 Y103L D106H G109F has yeast surface expression that meets 0.8 or exceeds it?
Reply: Not met

Task item: Could you please find out whether chain 1 G100V S101H has yeast surface expression that meets 0.8 or exceeds it?
Reply: Met

Task item: Could you please find out whether chain 1 S30I W36P V37E has yeast surface expression that meets 0.8 or exceeds it?
Reply: Met

Task item: Could you please find out whether chain 1 T28M V37K has yeast surface expression that meets 0.8 or exceeds it?
Reply: Not met

Task item: Could you please find out whether chain 1 Y102Q G104T has yeast surface expression that meets 0.8 or exceeds it?
Reply: Not met

Task item: Could you please find out whether chain 1 D31H N35A W36R has yeast surface expression that meets 0.8 or exceeds it?
Reply: Met

Task item: Could you please find out whether chain 1 D31G N35Q has yeast surface expression that meets 0.8 or exceeds it?
Reply: Not met

Task item: Could you please find out whether chain 1 F29I W33H has yeast surface expression that meets 0.8 or exceeds it?
Reply: Not met

Task item: Could you please find out whether chain 1 Y32W W33Y has yeast surface expression that meets 0.8 or exceeds it?
Reply: Met

Task item: Could you please find out whether chain 1 Y102V D106N has yeast surface expression that meets 0.8 or exceeds it?
Reply: Met

Task item: Could you please find out whether chain 1 W36L has yeast surface expression that meets 0.8 or exceeds it?
Reply: Not met

Task item: Could you please find out whether chain 1 G100I G104W has yeast surface expression that meets 0.8 or exceeds it?
Reply: Not met

Task item: Could you please find out whether chain 1 S101L D106K has yeast surface expression that meets 0.8 or exceeds it?
Reply: Not met

Task item: Could you please find out whether chain 1 G100H Y107H has yeast surface expression that meets 0.8 or exceeds it?
Reply: Not met

Task item: Could you please find out whether chain 1 G100Y Y107K has yeast surface expression that meets 0.8 or exceeds it?
Reply: Not met

Task item: Could you please find out whether chain 1 G100W D106F has yeast surface expression that meets 0.8 or exceeds it?
Reply: Not met

Task item: Could you please find out whether chain 1 S101F W108E has yeast surface expression that meets 0.8 or exceeds it?
Reply: Not met

Task item: Could you please find out whether chain 1 Y103C has yeast surface expression that meets 0.8 or exceeds it?
Reply: Not met

Task item: Could you please find out whether chain 1 F29M D31N Y32A has yeast surface expression that meets 0.8 or exceeds it?
Reply: Met

Task item: Could you please find out whether chain 1 T28W S30G Y32K has yeast surface expression that meets 0.8 or exceeds it?
Reply: Not met

Task item: Could you please find out whether chain 1 S30M has yeast surface expression that meets 0.8 or exceeds it?
Reply: Met

Task item: Could you please find out whether chain 1 S101T M105T has yeast surface expression that meets 0.8 or exceeds it?
Reply: Met
